Biological target: human creatine transporter-1 (CRT-1, SLC6A8), C-terminally YFP-tagged (Homo sapiens)
Construct: full-length cDNA in pEYFP-N1, C-terminal YFP tag, transiently expressed in HEK293 cells; oligomeric state not known
Sequence (P48029 whole entry): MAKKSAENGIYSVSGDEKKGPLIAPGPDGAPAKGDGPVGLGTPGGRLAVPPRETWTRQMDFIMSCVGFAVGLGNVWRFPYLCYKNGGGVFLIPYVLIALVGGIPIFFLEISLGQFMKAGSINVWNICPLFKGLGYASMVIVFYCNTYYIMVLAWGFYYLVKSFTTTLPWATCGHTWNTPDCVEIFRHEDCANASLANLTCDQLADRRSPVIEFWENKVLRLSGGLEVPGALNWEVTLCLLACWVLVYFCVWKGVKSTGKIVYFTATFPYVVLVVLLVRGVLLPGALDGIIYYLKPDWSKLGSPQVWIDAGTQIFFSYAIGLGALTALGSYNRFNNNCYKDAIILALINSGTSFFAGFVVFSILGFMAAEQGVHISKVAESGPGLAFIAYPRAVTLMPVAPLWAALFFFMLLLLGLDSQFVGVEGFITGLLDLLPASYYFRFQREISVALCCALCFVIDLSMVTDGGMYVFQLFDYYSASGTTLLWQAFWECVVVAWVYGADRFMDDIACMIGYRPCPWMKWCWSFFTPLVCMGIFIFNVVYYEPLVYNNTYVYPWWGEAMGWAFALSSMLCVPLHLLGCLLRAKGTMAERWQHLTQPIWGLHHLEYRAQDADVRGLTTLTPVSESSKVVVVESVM
Test: inhibition of [3H]creatine uptake in transfected HEK293 cells
measurement_type: IC50

query: Provide only the value of recorded IC50 for NC1=NCC(C(=O)O)CN1 (stereo not shown)
result: 105 µM

query: Provide only the value of recorded IC50 for N=C(N)NCCC(=O)O
result: 18.8 µM

query: Provide only the value of recorded IC50 for CN(CC(=O)O)C(=N)N
result: 48.4 µM

query: Provide only the value of recorded IC50 for NC1=NCCN1CC(=O)O
result: 167 µM
